Value source: patent US9493478B2

TARGET OF ASSAY: PI3Kα (p110α/p85α)(h) (Homo sapiens, UniProt P42336)
Sequence (P42336 whole entry): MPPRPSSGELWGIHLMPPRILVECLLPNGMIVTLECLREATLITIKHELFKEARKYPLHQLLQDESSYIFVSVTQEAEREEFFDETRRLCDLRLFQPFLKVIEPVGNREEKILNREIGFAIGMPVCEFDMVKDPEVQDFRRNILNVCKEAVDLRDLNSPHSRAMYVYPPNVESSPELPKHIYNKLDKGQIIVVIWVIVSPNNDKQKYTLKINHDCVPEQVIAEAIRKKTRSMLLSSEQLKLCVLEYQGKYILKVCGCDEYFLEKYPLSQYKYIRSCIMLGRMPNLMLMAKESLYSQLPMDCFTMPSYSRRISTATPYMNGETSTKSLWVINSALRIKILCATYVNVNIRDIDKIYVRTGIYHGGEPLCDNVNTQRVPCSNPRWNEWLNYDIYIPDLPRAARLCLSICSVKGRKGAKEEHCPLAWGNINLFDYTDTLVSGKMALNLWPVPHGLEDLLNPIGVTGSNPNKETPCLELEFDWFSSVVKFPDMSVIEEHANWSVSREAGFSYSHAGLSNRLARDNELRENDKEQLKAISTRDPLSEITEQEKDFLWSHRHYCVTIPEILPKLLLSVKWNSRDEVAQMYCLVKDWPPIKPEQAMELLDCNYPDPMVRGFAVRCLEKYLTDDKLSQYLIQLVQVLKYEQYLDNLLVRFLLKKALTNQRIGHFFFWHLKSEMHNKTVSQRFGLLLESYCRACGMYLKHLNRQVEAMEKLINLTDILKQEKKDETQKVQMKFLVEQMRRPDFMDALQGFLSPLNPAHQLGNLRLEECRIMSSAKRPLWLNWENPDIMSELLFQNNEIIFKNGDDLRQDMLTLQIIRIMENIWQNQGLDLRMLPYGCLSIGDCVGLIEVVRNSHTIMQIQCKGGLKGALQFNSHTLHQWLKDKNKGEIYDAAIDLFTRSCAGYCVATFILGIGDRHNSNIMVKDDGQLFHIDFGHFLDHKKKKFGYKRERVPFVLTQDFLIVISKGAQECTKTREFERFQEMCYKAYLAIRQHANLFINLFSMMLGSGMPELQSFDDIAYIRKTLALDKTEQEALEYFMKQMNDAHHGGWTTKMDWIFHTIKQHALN
Sequence (P27986 whole entry partner): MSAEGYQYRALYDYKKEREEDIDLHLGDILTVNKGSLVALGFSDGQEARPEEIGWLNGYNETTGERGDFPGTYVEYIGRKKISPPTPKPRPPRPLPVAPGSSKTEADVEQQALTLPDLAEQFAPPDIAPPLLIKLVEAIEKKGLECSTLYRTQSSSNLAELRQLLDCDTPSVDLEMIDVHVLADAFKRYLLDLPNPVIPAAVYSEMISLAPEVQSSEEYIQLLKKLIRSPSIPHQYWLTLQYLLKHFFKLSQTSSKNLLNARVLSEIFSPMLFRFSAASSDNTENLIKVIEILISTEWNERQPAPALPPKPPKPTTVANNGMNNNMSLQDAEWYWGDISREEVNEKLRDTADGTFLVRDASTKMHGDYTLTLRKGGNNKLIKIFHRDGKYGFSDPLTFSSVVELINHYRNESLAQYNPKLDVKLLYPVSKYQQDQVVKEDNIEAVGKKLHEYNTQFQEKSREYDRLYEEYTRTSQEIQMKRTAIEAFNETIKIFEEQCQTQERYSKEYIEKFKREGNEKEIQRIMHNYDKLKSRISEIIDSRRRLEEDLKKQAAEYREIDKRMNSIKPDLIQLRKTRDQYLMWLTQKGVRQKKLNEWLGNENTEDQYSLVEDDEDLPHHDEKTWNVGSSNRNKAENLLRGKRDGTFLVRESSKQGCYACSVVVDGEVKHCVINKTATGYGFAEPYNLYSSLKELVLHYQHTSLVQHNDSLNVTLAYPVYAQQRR
PROTOCOL DETAILS: Assay for phosphatidylinositol 3-kinase alpha (PI3Kα) activity, PI3K-HTRF kit
Assay type: biochemical
ASSAY SETUP: TR-FRET; enzyme 0.3625 μg/ml, 10 μM PIP2, 10 μM ATP
Procedure: [The source words this procedure for another target and says it was used here with some conditions changed.] The compounds of the present invention were assayed for the activity of phosphatidylinositol 3-kinase gamma (PI3Kγ) by using a PI3K enzyme-homogenous time resolved fluorescence (PI3K-HTRF) kit, which is available from Upstate (Millipore Co, Billerica, Mass., USA). […]
READOUT TYPE: IC50 (nM)
I only need the number, in nM, no unit after it.

**Q:** Can you share its IC50? I mean this compound: CCOC(C#Cc1cncc2cc(/C=C3\SC(=S)NC3=O)oc12)OCC
**A:** 23

**Q:** Subsequent entry: O=C1NC(=O)/C(=C/c2cc3cncc(-c4cccc(CN5CCCCC5)c4)c3o2)S1
**A:** 22

**Q:** Subsequent entry: O=C1NC(=S)S/C1=C\c1cc2cncc(C#CC3CC3)c2o1
**A:** 68

**Q:** Subsequent entry: CN(C)S(=O)(=O)c1ccc(-c2cncc3cc(/C=C4\SC(=S)NC4=O)oc23)cc1F
**A:** 24

**Q:** Subsequent entry: COc1cc(C#Cc2cncc3cc(/C=C4\SC(=O)NC4=O)oc23)cc(OC)c1
**A:** 8

**Q:** Subsequent entry: CC(C)c1ccccc1C#Cc1cncc2cc(/C=C3\SC(=S)NC3=O)oc12
**A:** 67
